Ref: ChEMBL document CHEMBL1126625

# Test system: Bacillus cereus
# test-summary: Minimum inhibitory concentration (MIC) preventing growth of Bacillus cereus
# Assay type: functional
List of MIC values.
Kindly report the value followed by its unit.

Here are 2 compounds together with their reported answers.
# item-smiles, endpoint-label, result
rows = [
    ("CC1(CN)CN(c2cc3c(cc2F)c(=O)c(C(=O)O)cn3C2CC2)C1", "MIC", "0.12 µg/mL"),
    ("CC1(n2cccc2)CN(c2c(F)cc3c(=O)c(C(=O)O)cn(C4CC4)c3c2F)C1", "MIC", "0.25 µg/mL"),
]

Now for another entry.
Inquiry: Fill in: MIC of `CCn1cc(C(=O)O)c(=O)c2c(N)c(F)c(N3CC(N)C3)c(F)c21` is ___
Reply text: 0.25 µg/mL

====

# Test system: Enterobacter cloacae
# test-summary: Minimum inhibitory concentration (MIC)preventing growth of Enterobacter cloacae
# Format: functional
endpoint-label: log10 MIC (log10 of the value in µg/mL)
Recorded MIC (log10, µg/mL)

Here are 5 compounds together with their reported answers.
# compound, log10 MIC
data = [
    ("CCNCC1(C)CN(c2cc3c(cc2F)c(=O)c(C(=O)O)cn3C2CC2)C1", -0.60),
    ("CNC1CN(c2cc3c(cc2F)c(=O)c2c(=O)[nH]sc2n3C2CC2)C1", -0.92),
    ("CNC1(C)CN(c2cc3c(cc2F)c(=O)c2c(=O)[nH]sc2n3C2CC2)C1", -1.22),
    ("CNC1(C)CN(c2nc3c(cc2F)c(=O)c(C(=O)O)cn3C2CC2)C1", -1.22),
    ("CC1(N)CN(c2c(F)c(N)c3c(=O)c(C(=O)O)cn(C4CC4)c3c2F)C1", -1.82),
]

Inquiry: Fill in: log10 MIC of `CN(C)C1CN(c2cc3c(cc2F)c(=O)c2c(=O)[nH]sc2n3C2CC2)C1` is ___
Reply text: -1.22

Inquiry: Fill in: log10 MIC of `O=C(O)c1cn(C2CC2)c2c(F)c(N3CCC3)c(F)cc2c1=O` is ___
Reply text: -0.60

Inquiry: Fill in: log10 MIC of `NC1CN(c2cc3c(cc2F)c(=O)c(C(=O)O)cn3C2CC2)C1` is ___
Reply text: -1.52

====

# System: Enterobacter cloacae
# test-summary: Minimum inhibitory concentration (MIC)preventing growth of Enterobacter cloacae
# Type: functional
Could you please mark yes (1) for values of MIC below 0.1 µg/mL and no (0) for values at or above it?

# item-smiles, group
records = [
    ("CNC1CN(c2c(F)cc3c(=O)c(C(=O)O)cn(C4CC4)c3c2Cl)C1", "yes (1)"),
]

Inquiry: Lab note: confirm whether the reported MIC for this molecule is below 0.1 µg/mL, equality not counting. molecule: `CCn1cc(C(=O)O)c(=O)c2c(N)c(F)c(N3CC(C)(N)C3)c(F)c21`
Reply text: no (0)

Inquiry: Lab note: confirm whether the reported MIC for this molecule is below 0.1 µg/mL, equality not counting. molecule: `CC1(N)CN(c2c(F)c(N)c3c(=O)c(C(=O)O)cn(-c4ccc(F)cc4F)c3c2F)C1`
Reply text: yes (1)

Inquiry: Lab note: confirm whether the reported MIC for this molecule is below 0.1 µg/mL, equality not counting. molecule: `O=C(O)c1cn(C2CC2)c2cc(N3CCC3)c(F)cc2c1=O`
Reply text: no (0)

Inquiry: Lab note: confirm whether the reported MIC for this molecule is below 0.1 µg/mL, equality not counting. molecule: `NC1CN(c2c(F)cc3c(=O)c(C(=O)O)cn(-c4ccc(F)cc4F)c3c2Cl)C1`
Reply text: yes (1)

Inquiry: Lab note: confirm whether the reported MIC for this molecule is below 0.1 µg/mL, equality not counting. molecule: `CCNC1CN(c2c(F)cc3c(=O)c(C(=O)O)cn(C4CC4)c3c2F)C1`
Reply text: yes (1)

Inquiry: Lab note: confirm whether the reported MIC for this molecule is below 0.1 µg/mL, equality not counting. molecule: `CCNC1CN(c2cc3c(cc2F)c(=O)c2c(=O)[nH]sc2n3C2CC2)C1`
Reply text: yes (1)

Inquiry: Lab note: confirm whether the reported MIC for this molecule is below 0.1 µg/mL, equality not counting. molecule: `CC1(N)CN(c2nc3c(cc2F)c(=O)c(C(=O)O)cn3-c2ccc(F)cc2F)C1`
Reply text: no (0)

Inquiry: Lab note: confirm whether the reported MIC for this molecule is below 0.1 µg/mL, equality not counting. molecule: `CC1(N)CN(c2nc3c(cc2F)c(=O)c(C(=O)O)cn3CCF)C1`
Reply text: no (0)

Inquiry: Lab note: confirm whether the reported MIC for this molecule is below 0.1 µg/mL, equality not counting. molecule: `CCNCC1CN(c2c(F)cc3c(=O)c(C(=O)O)cn(C4CC4)c3c2F)C1`
Reply text: no (0)

Inquiry: Lab note: confirm whether the reported MIC for this molecule is below 0.1 µg/mL, equality not counting. molecule: `NCC1CN(c2c(F)cc3c(=O)c(C(=O)O)cn(C4CC4)c3c2F)C1`
Reply text: no (0)

Inquiry: Lab note: confirm whether the reported MIC for this molecule is below 0.1 µg/mL, equality not counting. molecule: `CCn1cc(C(=O)O)c(=O)c2cc(F)c(N3CC(C)(N)C3)nc21`
Reply text: no (0)

Inquiry: Lab note: confirm whether the reported MIC for this molecule is below 0.1 µg/mL, equality not counting. molecule: `CCn1cc(C(=O)O)c(=O)c2cc(F)c(N3CC(C)(N)C3)cc21`
Reply text: no (0)

Inquiry: Lab note: confirm whether the reported MIC for this molecule is below 0.1 µg/mL, equality not counting. molecule: `CC(=O)OC1CN(c2c(F)cc3c(=O)c(C(=O)O)cn(C4CC4)c3c2F)C1`
Reply text: no (0)

Inquiry: Lab note: confirm whether the reported MIC for this molecule is below 0.1 µg/mL, equality not counting. molecule: `CC1(N)CN(c2c(F)cc3c(=O)c(C(=O)O)cn(CCF)c3c2Cl)C1`
Reply text: yes (1)

Inquiry: Lab note: confirm whether the reported MIC for this molecule is below 0.1 µg/mL, equality not counting. molecule: `CC1(N)CN(c2cc3c(cc2F)c(=O)c(C(=O)O)cn3-c2ccc(F)cc2F)C1`
Reply text: no (0)

Inquiry: Lab note: confirm whether the reported MIC for this molecule is below 0.1 µg/mL, equality not counting. molecule: `CC1(CN)CN(c2c(F)cc3c(=O)c(C(=O)O)cn(C4CC4)c3c2F)C1`
Reply text: no (0)

Inquiry: Lab note: confirm whether the reported MIC for this molecule is below 0.1 µg/mL, equality not counting. molecule: `N#CC1CN(c2c(F)cc3c(=O)c(C(=O)O)cn(C4CC4)c3c2F)C1`
Reply text: no (0)

Inquiry: Lab note: confirm whether the reported MIC for this molecule is below 0.1 µg/mL, equality not counting. molecule: `CCn1cc(C(=O)O)c(=O)c2cc(F)c(N3CC(C)(N)C3)c(F)c21`
Reply text: no (0)

Inquiry: Lab note: confirm whether the reported MIC for this molecule is below 0.1 µg/mL, equality not counting. molecule: `CC1(N)CN(c2c(F)cc3c(=O)c(C(=O)O)cn(-c4ccc(F)cc4F)c3c2Cl)C1`
Reply text: no (0)

Inquiry: Lab note: confirm whether the reported MIC for this molecule is below 0.1 µg/mL, equality not counting. molecule: `Nc1c(F)c(N2CC(O)C2)c(F)c2c1c(=O)c(C(=O)O)cn2C1CC1`
Reply text: no (0)

Inquiry: Lab note: confirm whether the reported MIC for this molecule is below 0.1 µg/mL, equality not counting. molecule: `CC1(N)CN(c2c(F)cc3c(=O)c(C(=O)O)cn(C(C)(C)C)c3c2F)C1`
Reply text: no (0)

Inquiry: Lab note: confirm whether the reported MIC for this molecule is below 0.1 µg/mL, equality not counting. molecule: `CNC1CN(c2c(F)cc3c(=O)c(C(=O)O)cn(-c4ccc(F)cc4F)c3c2Cl)C1`
Reply text: no (0)

Inquiry: Lab note: confirm whether the reported MIC for this molecule is below 0.1 µg/mL, equality not counting. molecule: `CN(C)C1(C)CN(c2c(F)cc3c(=O)c(C(=O)O)cn(C4CC4)c3c2F)C1`
Reply text: no (0)
